# Recorded Conditions: human, serum;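 further: human clinical chemistry: moderate when serum ALT or AST reaches 6× upper normal limit or alkaline phosphatase 1.7×, value counts indexed literature references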
Value Kind: Hepatotoxicity (moderate)
A bare number is all that is needed in reply.

{"Compound": "CCCC1C(=O)N2C(N(C)C)=Nc3ccc(C)cc3N2C1=O (centres undefined) [APAZONE]", "Hepatotoxicity (moderate)": 1}
{"Compound": "COc1cccc(OC)c1C(=O)N[C@@H]1C(=O)N2[C@@H]1SC(C)(C)[C@@H]2C(=O)O [METHICILLIN]", "Hepatotoxicity (moderate)": 1}

Answer with reported Hepatotoxicity (moderate) of `CO/N=C(\C(=O)N[C@@H]1C(=O)N2C(C(=O)OCOC(=O)C(C)(C)C)=C(Cn3nnc(C)n3)CS[C@H]12)c1csc(N)n1`
9

Answer with reported Hepatotoxicity (moderate) of Cc1ccc(S(=O)(=O)NC(=O)NN2CC3CCCC3C2)cc1 (centres undefined) [GLICLAZIDE]
1
